- TESTED TARGET: mTORC2 (Homo sapiens, UniProt P42345+P62942)
- Construct: endogenous in cells; host or cells: PC3 cells (human prostate adenocarcinoma)
- ASSAY REMARKS: Inhibition assay for mTORC2: phosphorylation of pAkt at Ser473, AlphaLISA SureFire in PC3 cells
- Type: cell-based
- CONDITION CONTEXT: PC3 cells, 24 hours treatment, analogs substituted at C40 and C16 (C16 diastereomer mixtures not isolated), read-out: pIC50 mTORC2 (converted)
Below, each entry is listed with its recorded IC50.

Exam item: Fill in: IC50 of CO[C@@H]1C[C@H](C[C@@H](C)[C@@H]2CC(=O)[C@H](C)/C=C(\C)[C@@H](O)[C@@H](OC)C(=O)[C@H](C)C[C@H](C)/C=C/C=C/C=C(\C)C(OCCc3ccccc3)C[C@@H]3CC[C@@H](C)[C@@](O)(O3)C(=O)C(=O)N3CCCCC3C(=O)O2)CC[C@H]1OC(=O)NCCn1cnnn1 (stereo partly drawn) [Compound 114] is ___
Marked response: < 1 µM

Exam item: Now this one: CO[C@@H]1C[C@H](C[C@@H](C)[C@@H]2CC(=O)[C@H](C)/C=C(\C)[C@@H](O)[C@@H](OC)C(=O)[C@H](C)C[C@H](C)/C=C/C=C/C=C(\C)C(OCCc3ccccc3)C[C@@H]3CC[C@@H](C)[C@@](O)(O3)C(=O)C(=O)N3CCCCC3C(=O)O2)CC[C@H]1OCCCN1CCOCC1 (stereo partly drawn) [Compound 108]
Marked response: < 1 µM

Exam item: // query: CO[C@@H]1C[C@H](C[C@@H](C)[C@@H]2CC(=O)[C@H](C)/C=C(\C)[C@@H](O)[C@@H](OC)C(=O)[C@H](C)C[C@H](C)/C=C/C=C/C=C(\C)C(OCCO)C[C@@H]3CC[C@@H](C)[C@@](O)(O3)C(=O)C(=O)N3CCCCC3C(=O)O2)CC[C@H]1OCCCN1CCOC(C)(C)C1 (stereo partly drawn) [Compound 12]
Marked response: > 10 µM

###

- TESTED TARGET: mTORC1 (Homo sapiens, UniProt P42345+P62942)
- Construct: endogenous in cells; host or cells: PC3 cells (human prostate adenocarcinoma)
- ASSAY REMARKS: Inhibition assay for mTORC1: phosphorylation of pS6K at Thr389, AlphaLISA SureFire in PC3 cells
- Assay type: cell-based
- CONDITION CONTEXT: PC3 cells, 24 hours treatment, pS6K Thr389; analogs substituted at C40 and C16 (C16 diastereomer mixtures not isolated); read-out: pIC50 mTORC1 (converted)
QUANTITY NAME: IC50

Recorded results for 2 compounds are shown here.
compound="COCCOC1C[C@@H]2CC[C@@H](C)[C@@](O)(O2)C(=O)C(=O)N2CCCCC2C(=O)O[C@H]([C@H](C)C[C@@H]2CC[C@@H](OCCN3CCN(C)CC3)[C@H](OC)C2)CC(=O)[C@H](C)/C=C(\\C)[C@@H](O)[C@@H](OC)C(=O)[C@H](C)C[C@H](C)/C=C/C=C/C=C/1C (stereo partly drawn)" result="< 0.316 nM"
compound="CO[C@@H]1C[C@H](C[C@@H](C)[C@@H]2CC(=O)[C@H](C)/C=C(\\C)[C@@H](O)[C@@H](OC)C(=O)[C@H](C)C[C@H](C)/C=C/C=C/C=C(\\C)C(OCCO)C[C@@H]3CC[C@@H](C)[C@@](O)(O3)C(=O)C(=O)N3CCCCC3C(=O)O2)CC[C@H]1OCCCN1CCCCC1 (stereo partly drawn)" result="0.316 to 3.16 nM"

# ---- query compound ----
Exam item: Form: Entry = CO[C@@H]1C[C@H](C[C@@H](C)[C@@H]2CC(=O)[C@H](C)/C=C(\C)[C@@H](O)[C@@H](OC)C(=O)[C@H](C)C[C@H](C)/C=C/C=C/C=C(\C)C(OCCc3ccccc3)C[C@@H]3CC[C@@H](C)[C@@](O)(O3)C(=O)C(=O)N3CCCCC3C(=O)O2)CC[C@H]1OC(=O)NCCc1c[nH]cn1 (stereo partly drawn) | System = mTORC1 (Homo sapiens, UniProt P42345+P62942) | IC50 = ____
Marked response: < 0.316 nM
